measurementTarget: human glucagon receptor (human, UniProt P47871 26-477)
Sequence (P47871 26-477): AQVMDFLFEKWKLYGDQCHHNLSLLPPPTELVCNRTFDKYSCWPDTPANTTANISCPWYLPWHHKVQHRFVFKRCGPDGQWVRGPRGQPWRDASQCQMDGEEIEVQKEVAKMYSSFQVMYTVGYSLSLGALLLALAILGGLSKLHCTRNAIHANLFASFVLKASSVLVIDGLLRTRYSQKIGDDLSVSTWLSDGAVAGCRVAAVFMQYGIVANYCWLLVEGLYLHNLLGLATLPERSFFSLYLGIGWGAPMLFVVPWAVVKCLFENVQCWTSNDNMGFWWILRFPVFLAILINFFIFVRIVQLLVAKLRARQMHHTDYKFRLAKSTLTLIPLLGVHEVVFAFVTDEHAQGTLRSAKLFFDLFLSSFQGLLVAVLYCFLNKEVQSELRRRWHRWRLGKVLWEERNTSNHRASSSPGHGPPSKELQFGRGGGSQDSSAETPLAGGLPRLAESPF
assay: cell-based or functional assay
Where no end group is shown, it is not given here. [ ]: non-standard residue; d: D form. Aib = CC(C)(N)C(=O)O
parameterMeasured: hGcgR CRE Luc EC50 (pM)

>>> valuereported("Y[Aib]QGTFTSDYSILLEKQAA[Aib]EFVQWLLEGGPSSGAPPPS-NH2 (not fully specified (residue 16); printed as Y-Aib-QGTFTSDYSILLE-K[(2S)-2-amino-6-[[(2S)-2-amino-6-[[(4S)-4-carboxy-4-(19-carboxynonadecanoylamino)butanoyl]amino]hexanoyl]amino]hexanoyl]-QAA-Aib-EFVQWLLEGGPSSGAPPPS-NH2) [Compound No. 46]")
"25 pM"
>>> valuereported("H[Aib]HGTFTSDYSILLEKQAAREFVQWLLEGGPSSGAPPPS-OH (not fully specified (residue 16); printed as H-Aib-HGTFTSDYSILLE-K[(2S)-2-amino-6-[[(2S)-2-amino-6-[[(4S)-4-carboxy-4-(17-carboxyheptadecanoylamino)butanoyl]amino]hexanoyl]amino]hexanoyl]-QAAREFVQWLLEGGPSSGAPPPS-OH) [Compound No. 54]")
"22.8 pM"
>>> valuereported("H[Aib]HGTFTSDYSILLEKQAAHEFVQWLLEGGPSSGAPPPS-OH (not fully specified (residue 16); printed as H-Aib-HGTFTSDYSILLE-K[(2S)-2-amino-6-[[(2S)-2-amino-6-[[(4S)-4-carboxy-4-(17-carboxyheptadecanoylamino)butanoyl]amino]hexanoyl]amino]hexanoyl]-QAAHEFVQWLLEGGPSSGAPPPS-OH) [Compound No. 56]")
"6.4 pM"
>>> valuereported("H[Aib]HGTFTSDYSIYLEKKYA[Aib]EFVQWLLEGGPSSGAPPPS-NH2 (not fully specified (residue 16); printed as H-Aib-HGTFTSDYSIYLE-K[2-[2-[2-[[2-[2-[2-[[(4S)-4-carboxy-4-(19-carboxynonadecanoylamino)butanoyl]amino]ethoxy]ethoxy]acetyl]amino]ethoxy]ethoxy]acetyl]-KYA-Aib-EFVQWLLEGGPSSGAPPPS-NH2) [Compound No. 39]")
"12.9 pM"
>>> valuereported("H[Aib]HGTFTSDYSIYLEKQAAEEFVQWLLEGGPSSGAPPPS-NH2 (not fully specified (residue 16); printed as H-Aib-HGTFTSDYSIYLE-K[(2S)-2-amino-6-[[(2S)-2-amino-6-[[(4S)-4-carboxy-4-(19-carboxynonadecanoylamino)butanoyl]amino]hexanoyl]amino]hexanoyl]-QAAEEFVQWLLEGGPSSGAPPPS-NH2) [Compound No. 27]")
"55 pM"
